Field: log10 IC50. Provide a value for each of the molecules that follow.
Target: recombinant human BCAT1 enzyme (Homo sapiens)
Construct: purchased ATGen (South Korea) ATGP1479
Sequence (P54687 1-386): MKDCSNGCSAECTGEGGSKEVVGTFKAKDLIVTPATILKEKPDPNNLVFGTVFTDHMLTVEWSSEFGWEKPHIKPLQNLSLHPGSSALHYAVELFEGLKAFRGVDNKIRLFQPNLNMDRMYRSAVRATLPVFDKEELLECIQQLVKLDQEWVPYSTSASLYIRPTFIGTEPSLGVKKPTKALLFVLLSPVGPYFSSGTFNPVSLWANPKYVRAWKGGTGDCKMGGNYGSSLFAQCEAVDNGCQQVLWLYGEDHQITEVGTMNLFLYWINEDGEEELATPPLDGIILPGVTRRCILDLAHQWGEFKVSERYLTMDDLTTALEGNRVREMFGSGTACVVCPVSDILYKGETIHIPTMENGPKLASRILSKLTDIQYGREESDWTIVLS
Assay: In vitro assay 1a: BCAT1 biochemical assay (coupled LeuDH/NADH fluorescence readout)
Conditions: recombinant human BCAT1 […], 32° C., 100 μM leucine, 50 μM α-ketoglutarate, NADH fluorescence over 90 min; read-out: BCAT1 IC50
Parameter value (number): base-10 log of IC50 in nM.

# annotated cases, reported log10 IC50 shown
[[record]]
molecule = "CC(=O)c1cc(C)cc(C)c1Oc1cc(-n2c(=O)cc(C(F)(F)F)[nH]c2=O)c(F)cc1C#N"
system_under_test = "recombinant human BCAT1 enzyme (Homo sapiens)"
reported_endpoint = "log10 IC50"
reported_measurement = 3.26

[[record]]
molecule = "Cc1ccc(Oc2cc(-n3c(=O)cc(C(F)(F)F)[nH]c3=O)c(F)cc2C#N)c(C)c1"
system_under_test = "recombinant human BCAT1 enzyme (Homo sapiens)"
reported_endpoint = "log10 IC50"
reported_measurement = 3.83

[[record]]
molecule = "N#Cc1cc(F)c(-n2c(=O)cc(C(F)(F)F)[nH]c2=O)cc1Oc1c(N)cccc1F"
system_under_test = "recombinant human BCAT1 enzyme (Homo sapiens)"
reported_endpoint = "log10 IC50"
reported_measurement = 2.47

[[record]]
molecule = "Cc1cccc(N)c1Oc1cc(-n2c(=O)cc(C(F)(F)F)[nH]c2=O)c(F)cc1C#N"
system_under_test = "recombinant human BCAT1 enzyme (Homo sapiens)"
reported_endpoint = "log10 IC50"
reported_measurement = 2.70

[[record]]
molecule = "Cc1cc(C)c(Oc2cc(-n3c(=O)cc(C(F)(F)F)[nH]c3=O)c(F)cc2C#N)c(C)c1"
system_under_test = "recombinant human BCAT1 enzyme (Homo sapiens)"
reported_endpoint = "log10 IC50"
reported_measurement = 3.40

[[record]]
molecule = "COc1cc(C#N)c(Oc2ccccc2C)cc1-n1c(=O)cc(-c2ccccc2)[nH]c1=O (single isomer, unassigned) [Example 43]"
system_under_test = "recombinant human BCAT1 enzyme (Homo sapiens)"
reported_endpoint = "log10 IC50"
reported_measurement = 3.74

[[record]]
molecule = "COc1cc(C#N)c(Oc2ccccc2C)cc1-n1c(=O)cc(C(N)=O)[nH]c1=O (racemic)"
system_under_test = "recombinant human BCAT1 enzyme (Homo sapiens)"
reported_endpoint = "log10 IC50"
reported_measurement = 2.95

[[record]]
molecule = "COc1cc(C#N)c(Oc2ccccc2C)cc1-n1c(=O)cc(-c2ccccc2)[nH]c1=O (single isomer, unassigned) [Example 44]"
system_under_test = "recombinant human BCAT1 enzyme (Homo sapiens)"
reported_endpoint = "log10 IC50"
reported_measurement = 2.74


Would you mind giving log10 IC50 for every molecule in the list below?
1. Cc1ccccc1Oc1cc(-n2c(=O)cc(C(F)(F)C(F)(F)F)[nH]c2=O)c(F)cc1C#N
2. COc1cc(C#N)c(Oc2ccccc2C)cc1-n1c(=O)cc(C(F)(F)Cl)[nH]c1=O (racemic)
3. Cc1ccccc1Oc1cc(-n2c(=O)cc(C(F)(F)F)[nH]c2=O)c(O)cc1C#N (racemic)
4. COc1cc(Cl)c(Oc2ccccc2C)cc1-n1c(=O)cc(C(F)(F)F)[nH]c1=O (racemic)
5. Cc1cccc(C)c1Oc1cc(-n2c(=O)cc(C(F)(F)c3ccccc3)[nH]c2=O)c(F)cc1C#N

A.
1: 3.13; 2: 2.30; 3: 3.26; 4: 2.64; 5: 3.18

Would you mind giving log10 IC50 for every molecule in the list below?
1. COc1cc(C#N)c(Oc2ccccc2C)cc1-n1c(=O)cc(-c2ccccc2)[nH]c1=O (racemic) [Example 42]
2. Cc1ccccc1Oc1cc(-n2c(=O)cc(C(F)(F)Cl)[nH]c2=O)c(Cl)cc1C#N (racemic)

A.
1. 2.86
2. 2.43
